molecular target: proMMP9(20-445;ΔFnII) (SEQ ID NO:6) (Homo sapiens, UniProt P14780, DEL216-390); construct: start methionine (N); made in house; host or cells: E. coli BL21(DE3) RIL; experiment: ThermoFluor binding assay with proMMP9(20-445;ΔFnII)
Sequence (P14780 with tags, fused parts or gaps DEL216-390): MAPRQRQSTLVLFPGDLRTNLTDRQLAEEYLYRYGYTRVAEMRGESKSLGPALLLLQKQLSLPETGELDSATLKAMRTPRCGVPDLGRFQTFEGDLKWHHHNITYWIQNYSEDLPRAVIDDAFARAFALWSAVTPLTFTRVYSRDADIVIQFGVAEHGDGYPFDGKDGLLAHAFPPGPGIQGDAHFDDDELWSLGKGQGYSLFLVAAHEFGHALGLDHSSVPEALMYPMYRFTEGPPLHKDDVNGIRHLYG
propertyMeasured: Kd (µM)

Solved entries (count: 4):
smilesStr | quantityUnit | Kd
COc1ccc(S(C)(=O)=O)cc1Nc1nc2c(ccc3c2cnn3C)s1 | µM | 1.1
COc1ccc(S(C)(=O)=O)cc1Nc1nc2c(ccc3nc(C)n(C)c32)s1 | µM | 1.6
COc1ccc(C(N)=O)cc1Nc1nc2c(ccc3c2cnn3C)s1 | µM | 0.19
CC(C)Oc1ccc(C(N)=O)cc1Nc1nc2c(ccc3ncccc32)s1 | µM | 0.95

I = CC(C)Oc1ccc(C(N)=O)cc1Nc1nc2c(ccc3c2ncn3C)s1
II = COc1ccccc1Nc1nc2c(ccc3sc(N)nc32)s1
III = COc1ccccc1Nc1nc2c(ccc3cnccc32)s1
(Q) Sort entries by Kd from minimum to maximum value. Answer format: the labels, ordered as requested.
(A) I, II, III

====

molecular target: full-length proMMP9(1-707) activation by catalytic MMP3 (Homo sapiens, UniProt P14780, R574P); construct: MMP3: E. coli; experiment: proMMP9/MMP3 P126 Activation Assay
Sequence (P14780 20-707 R574P): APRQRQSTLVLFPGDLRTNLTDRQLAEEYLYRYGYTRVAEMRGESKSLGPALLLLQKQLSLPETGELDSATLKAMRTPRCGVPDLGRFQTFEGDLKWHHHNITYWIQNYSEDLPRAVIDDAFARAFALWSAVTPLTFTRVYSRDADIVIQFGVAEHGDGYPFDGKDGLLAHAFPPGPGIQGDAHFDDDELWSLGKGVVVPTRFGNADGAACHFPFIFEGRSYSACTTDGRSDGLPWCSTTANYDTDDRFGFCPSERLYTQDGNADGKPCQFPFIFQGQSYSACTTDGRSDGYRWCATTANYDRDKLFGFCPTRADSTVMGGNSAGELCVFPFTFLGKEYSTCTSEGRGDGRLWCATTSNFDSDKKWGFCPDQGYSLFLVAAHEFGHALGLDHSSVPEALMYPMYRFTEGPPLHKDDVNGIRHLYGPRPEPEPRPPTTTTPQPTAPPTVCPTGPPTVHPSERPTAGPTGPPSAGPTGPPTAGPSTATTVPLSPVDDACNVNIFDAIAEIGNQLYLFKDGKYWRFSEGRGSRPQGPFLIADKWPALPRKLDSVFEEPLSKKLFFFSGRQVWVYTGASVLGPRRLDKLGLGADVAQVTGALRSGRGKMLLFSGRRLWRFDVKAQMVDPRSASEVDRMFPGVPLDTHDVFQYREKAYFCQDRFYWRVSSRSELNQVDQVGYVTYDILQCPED
pIC50: −log10 of the molar value.
propertyMeasured: pIC50

Solved entries (count: 10):
smilesStr | pIC50
Cn1ncc2c3nc(Nc4cc(C(N)=O)ccc4OC(F)(F)F)sc3ccc21 | 6.60
CCn1c(C)nc2ccc3sc(Nc4cc(S(N)(=O)=O)ccc4OC(C)C)nc3c21 | 6.29
Cn1cnc2c3nc(Nc4ccccc4[N+](=O)[O-])sc3ccc21 | 5.96
COc1ccc(S(C)(=O)=O)cc1Nc1nc2c(ccc3c2ncn3C)s1 | 6.80
COc1ccc(F)cc1Nc1nc2c(ccc3ncn(C)c32)s1 | 6.57
CCn1ncc2c3nc(Nc4cc(S(C)(=O)=O)ccc4OC)sc3ccc21 | 6.72
COc1ccccc1Nc1nc2c(ccc3cnccc32)s1 | 5.77
Cc1nc2c3nc(Nc4cnccc4OC(C)C)sc3ccc2n1C | 7.19
CC(C)Oc1ccc(S(C)(=O)=O)cc1Nc1nc2c(ccc3c2ncn3C)s1 | 6.66
Cn1ccc2c3nc(Nc4cc(S(N)(=O)=O)ccc4OC(F)(F)F)sc3ccc21 | 6.19

I = COc1ccc(F)cc1Nc1nc2c(ccc3cnccc32)s1
II = COc1c(Nc2nc3c(ccc4c3ncn4C)s2)cc(C(N)=O)c(F)c1F
(Q) Please choose the item with the lower pIC50 value from this pair: I and II Give the label under which the chosen entry appears.
(A) II

I = COc1ccc(S(N)(=O)=O)cc1Nc1nc2c(ccc3ncn(C)c32)s1
II = Cn1cnc2c3nc(Nc4cc(S(N)(=O)=O)ccc4OC(F)(F)F)sc3ccc21
(Q) Please choose the item with the lower pIC50 value from this pair: I and II Give the label under which the chosen entry appears.
(A) I

I = COc1ccc(S(=O)(=O)N2CCCC2)cc1Nc1nc2c(ccc3c2ncn3C)s1
II = COc1ccncc1Nc1nc2c(ccc3c2ncn3C)s1
(Q) Response body: label of entry with the larger pIC50; valid values I , II . Give the label under which the chosen entry appears.
(A) II
(II: 6.96, I: 6.34)

a = COc1c(F)cc(C(N)=O)cc1Nc1nc2c(ccc3c2ncn3C)s1
b = COc1ccccc1Nc1nc2c(ccc3nc(N)sc32)s1
(Q) Response body: label of entry with the larger pIC50; valid values a , b . Give the label under which the chosen entry appears.
(A) a

====

biological target: full-length proMMP9(1-707) activation by catalytic MMP3 (Homo sapiens, UniProt P14780, R574P); construct: MMP3: E. coli; assay: proMMP9/MMP3 P126 Activation Assay
propertyMeasured: IC50 (nM)

Solved entries (count: 2):
molecule | quantityUnit | IC50
COc1ccncc1Nc1nc2c(ccc3nc(C)n(C)c32)s1 [Example 154] | nM | 630
CC(C)Oc1ccc(C(N)=O)cc1Nc1nc2c(ccc3[nH]c(N4CCN(C)CC4)nc32)s1 [Example 31] | nM | 820

P = COc1ccc(C(N)=O)cc1Nc1nc2c(ccc3c2ncn3C)s1 [Example 39]
Q = CCn1c(C)nc2ccc3sc(Nc4cc(S(N)(=O)=O)ccc4OC)nc3c21 [Example 129]
(Q) Response body: label of entry with the larger IC50; valid values P , Q . Give the label under which the chosen entry appears.
(A) Q

P = CC(C)Oc1ccc(C(=O)O)cc1Nc1nc2c(ccc3[nH]c(N)nc32)s1 [Example 10]
Q = COc1ccc(NC(N)=O)cc1Nc1nc2c(ccc3c2ncn3C)s1 [Example 87]
(Q) Please choose the item with the lower IC50 value from this pair: P and Q Give the label under which the chosen entry appears.
(A) P
(P: 130 nM, Q: 650 nM)

a = COc1ccc(S(N)(=O)=O)cc1Nc1nc2c(ccc3c2ncn3C)s1 [Example 54]
b = CC(C)Oc1ccc(S(N)(=O)=O)cc1Nc1nc2c(ccc3ncn(C)c32)s1 [Example 131]
(Q) Please choose the item with the lower IC50 value from this pair: a and b Give the label under which the chosen entry appears.
(A) a

====

biological target: proMMP9(67-444;ΔFnII) (SEQ ID NO:5) (Homo sapiens, UniProt P14780, DEL216-390); construct: start methionine (N); assay: ThermoFluor binding assay with proMMP9(67-444;ΔFnII)
Sequence (P14780 with tags, fused parts or gaps DEL216-390): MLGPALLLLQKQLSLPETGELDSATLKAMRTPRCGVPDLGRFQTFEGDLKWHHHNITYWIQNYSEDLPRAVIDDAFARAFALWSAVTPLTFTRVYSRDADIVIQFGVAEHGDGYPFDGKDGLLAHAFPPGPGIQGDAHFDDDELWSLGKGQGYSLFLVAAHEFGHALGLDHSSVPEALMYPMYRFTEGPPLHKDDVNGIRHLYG
pKd: −log10 of the molar value.
propertyMeasured: pKd

Solved entries (count: 5):
molecule | pKd
Cn1cnc2c3nc(Nc4ccccc4[N+](=O)[O-])sc3ccc21 [Example 77] | 5.59
CC(C)Oc1ccc(C(N)=O)cc1Nc1nc2c(ccc3[nH]nnc32)s1 [Example 47] | 5.80
CC(C)Oc1ccc(S(N)(=O)=O)cc1Nc1nc2c(ccc3cnccc32)s1 [Example 105] | 6.10
Cc1nc2ccc3sc(Nc4cc(S(N)(=O)=O)ccc4OC(C)C)nc3c2n1C [Example 119] | 5.92
COc1ccc(S(C)(=O)=O)cc1Nc1nc2c(ccc3c2cnn3CC(C)C)s1 [Example 108] | 5.85

A = CCCn1c(C)nc2c3nc(Nc4cc(C(N)=O)ccc4OC(C)C)sc3ccc21 [Example 36]
B = COc1c(Nc2nc3c(ccc4c3ncn4C)s2)cc(C(N)=O)c(F)c1F [Example 44]
C = COc1ccc(NC(C)=O)cc1Nc1nc2c(ccc3c2ncn3C)s1 [Example 49]
D = COc1ccccc1Nc1nc2c(ccc3ncn(C)c32)s1 [Example 132]
(Q) Sort entries by pKd from minimum to maximum value. Answer format: the labels, ordered as requested.
(A) D, B, C, A
(D: 4.59, B: 5.21, C: 5.80, A: 6.15)

====

target: full-length proMMP9(1-707) activation by catalytic MMP3 (Homo sapiens, UniProt P14780, R574P); construct: MMP3: E. coli; assay: proMMP9/MMP3 P126 Activation Assay
pIC50: −log10 of the molar value.
propertyMeasured: pIC50

smilesStr | pIC50
CC(C)Oc1ccc(C(N)=O)cc1Nc1nc2c(s1)CCc1ccncc1-2 | 6.01
Cn1ncc2c3nc(Nc4cc(S(N)(=O)=O)ccc4OC(F)(F)F)sc3ccc21 | 6.12
CCn1c(C)nc2ccc3sc(Nc4cnccc4OC)nc3c21 | 6.26
COc1ccc([N+](=O)[O-])cc1Nc1nc2c(ccc3c2ncn3C)s1 | 7.00
Cn1cnc2c3nc(Nc4ccccc4OC(F)(F)F)sc3ccc21 | 6.42
CCCn1ncc2c3nc(Nc4cc(S(C)(=O)=O)ccc4OC)sc3ccc21 | 6.43
COc1cc(C)c(C(N)=O)cc1Nc1nc2c(ccc3c2ncn3C)s1 | 5.96
COc1ccccc1Nc1nc2c(ccc3[nH]c(N)nc32)s1 | 6.18

I = CC(=O)Nc1nc2c(ccc3sc(Nc4cc(C(N)=O)ccc4OC(C)C)nc32)[nH]1
II = COc1ccc(F)cc1Nc1nc2c(ccc3c2ncn3C)s1
(Q) Response body: label of entry with the larger pIC50; valid values I , II . Give the label under which the chosen entry appears.
(A) II

a = CC(C)Oc1ccc(S(N)(=O)=O)cc1Nc1nc2c(ccc3c2ccn3C)s1
b = CC(C)Oc1ccc(C(N)=O)cc1Nc1nc2c(ccc3c2cnn3C)s1
c = COc1ccc(Cl)cc1Nc1nc2c(ccc3nc(N)sc32)s1
(Q) Sort entries by pIC50 from minimum to maximum value. Answer format: the labels, ordered as requested.
(A) c, a, b

====

biological target: proMMP9(67-444;ΔFnII) (SEQ ID NO:5) (Homo sapiens, UniProt P14780, DEL216-390); construct: start methionine (N); assay: ThermoFluor binding assay with proMMP9(67-444;ΔFnII)
pKd: −log10 of the molar value.
propertyMeasured: pKd

Solved entries (count: 10):
smilesStr | pKd
CC(C)Oc1ccc(C(N)=O)cc1Nc1nc2c(ccc3c2cnn3C)s1 | 6.51
COc1ccc(C(N)=O)cc1Nc1nc2c(ccc3cnccc32)s1 | 6.36
COc1ccccc1Nc1nc2c(ccc3nc(N)sc32)s1 | 6.39
COc1ccc(C(N)=O)cc1Nc1nc2c(ccc3c2cnn3C)s1 | 6.44
Cn1cnc2c3nc(Nc4cccnc4)sc3ccc21 | 4.82
CC(C)Oc1ccc(C(N)=O)cc1Nc1nc2c(ccc3nc(C(=O)N4CCN(C)CC4)[nH]c32)s1 | 6.15
CC(C)Oc1ccc(S(N)(=O)=O)cc1Nc1nc2c(ccc3ncn(C)c32)s1 | 5.70
CC(C)Oc1ccc(C(N)=O)cc1Nc1nc2c(ccc3[nH]cnc32)s1 | 6.20
COc1ccc([N+](=O)[O-])cc1Nc1nc2c(ccc3c2ncn3C)s1 | 6.42
Cc1nc2ccc3sc(Nc4cc(S(C)(=O)=O)ccc4OC(C)C)nc3c2n1C | 6.18

P = COc1ccncc1Nc1nc2c(ccc3nc(C)n(C)c32)s1
Q = Cn1cnc2c3nc(Nc4cc(C(N)=O)ccc4OC(F)(F)F)sc3ccc21
(Q) Response body: label of entry with the larger pKd; valid values P , Q . Give the label under which the chosen entry appears.
(A) Q
(Q: 6.60, P: 5.96)

// provenance: patent US20120129811A1
